- testTarget: T1, catalytic sub-unit of the Telomerase protein peptide on HLA-A*02:01 (human)
- T1 peptide: ILAKFLHWL
- testDescription: Kd or kinetics
parameter: binding result

INSERT INTO measurements (binder, result) VALUES
  ('TCR of SEQ ID NOs 15 and 66 (TCR, V domains shown) Valpha: GIQVEQSPPDLILQEGANSTLRCNFSDSVNNLQWFHQNPWGQLINLFYIPSGTKQNGRLSATTVATERYSLLYISSSQTTDSGVYFCAVDSATTGMFGYIFGTGTRLKVLA Vbeta: NAGVTQTPKFQVLKTGQSMTLQCAQDMNHEYMSWYRQDPGMGLRLIHYSRWVGDTDQGEVPNGYNVSRSTTEDFPLRLLSAAPSQTSVYFCGIQPQGTEAFFGQGTRLTVV', 'recognises'),
  ('TCR of SEQ ID NOs 15 and 70 (TCR, V domains shown) Valpha: GIQVEQSPPDLILQEGANSTLRCNFSDSVNNLQWFHQNPWGQLINLFYIPSGTKQNGRLSATTVATERYSLLYISSSQTTDSGVYFCAVDSATTGMFGYIFGTGTRLKVLA Vbeta: NAGVTQTPKFQVLKTGQSMTLQCAQDMNHEYMSWYRQDPGMGLRLIHYSICWGCTDQGEVPNGYNVSRSTTEDFPLRLLSAAPSQTSVYFCGVQPQGTEAFFGQGTRLTVV', 'recognises');
